Measured Maximum absorption wavelength of individual entries
- protocol-description: Photochromic properties of photochromic cured product prepared by kneading method
- Assay type: physicochemical
- condition-label: 1 mm thiourethane cured product, 0.106 mmol per 100 g monomer, after color development
Report the value in nm with no unit label.

Solved entries (count: 4):
>  <compound>
COCCCCC1(CCCCOC)c2ccccc2-c2c1c1c(c3cc(-c4ccc(OC)cc4OC)c(OC)cc23)OC(c2ccc(N(C)c3ccccc3)cc2)(c2ccc3c(c2)CCO3)C=C1 (centres unmarked)

>  <Maximum absorption wavelength, nm>
479

$$$$
>  <compound>
COc1ccc(C2(c3ccc(N(C)c4ccccc4)cc3)C=Cc3c4c(c5cc(-c6ccc(N7CCOCC7)cc6)c(OC)cc5c3O2)-c2ccccc2C4(C)C)cc1 (centres unmarked)

>  <Maximum absorption wavelength, nm>
503

$$$$
>  <compound>
CCN(c1ccc(OC)cc1)c1ccc(C2(c3ccc(OC)cc3)C=Cc3c4c(c5cc(-c6ccc(N7CCOCC7)cc6)c(OC)cc5c3O2)-c2ccccc2C4(C)C)cc1 (centres unmarked)

>  <Maximum absorption wavelength, nm>
505

$$$$
>  <compound>
COCCOCCOCCOCCC1(CCOCCOCCOCCOC)c2cc(C(F)(F)F)ccc2-c2c1c1c(c3cc(OC)c(OC)cc23)OC(c2ccc(OC)cc2)(c2ccc(N(C)c3ccccc3)cc2)C=C1 (centres unmarked)

>  <Maximum absorption wavelength, nm>
486

$$$$

Consider the compound CCCC1(CCC)c2ccccc2-c2c1c1c(c3cc(OC)c(-c4ccc(OC)cc4OC)cc23)OC(c2ccc(C)cc2)(c2ccc(N(C)c3ccccc3)cc2)C=C1 (centres unmarked) and give its measured Maximum absorption wavelength.
496

----------
// Maximum absorption wavelength lookup, one value per entry
- protocol-description: Photochromic properties of photochromic laminate (plastic lens) prepared by coating method
- Type: physicochemical
- condition-label: 40 µm photochromic layer on thiourethane lens, 0.25 mmol compound per 100 g monomers, after color development
API: value field is a number in nm; no unit string.

>  <molecule>
COCCCCC1(CCCCOC)c2cc(-c3ccccc3)ccc2-c2c1c1c(c3cc(OC)c(N4CCS(=O)(=O)CC4)cc23)OC(c2ccc(OCCOCCOC)cc2)(c2ccc(N(C)c3ccccc3)cc2)C=C1 (stereo not drawn)

>  <numeric-result>
498

$$$$
>  <molecule>
CCCCC1(CCCC)c2cc([Si](C)(c3ccccc3)c3ccccc3)ccc2-c2c1c1c(c3cc(OC)c(C)cc23)OC(c2ccc(C)cc2)(c2ccc(N(C)c3ccccc3)cc2)C=C1 (stereo not drawn)

>  <numeric-result>
487

$$$$
>  <molecule>
COCCN(c1ccccc1)c1ccc(C2(c3ccc4c(c3)OCCO4)C=Cc3c4c(c5cc6c(cc5c3O2)SC(C)(C)O6)-c2ccccc2C42CCC3(CCCCC3)CC2)cc1 (stereo not drawn)

>  <numeric-result>
492

$$$$
>  <molecule>
CCCC1(CCC)c2ccccc2-c2c1c1c(c3cc(OC)c(-c4ccc(OC)cc4OC)cc23)OC(c2ccc(C)cc2)(c2ccc(N(C)c3ccccc3)cc2)C=C1 (stereo not drawn)

>  <numeric-result>
494

$$$$

# input molecule: CCCC1(CCC)c2ccccc2-c2c1c1c(c3cc(OC)c(N(c4ccccc4)c4ccccc4)cc23)OC(c2ccc(C)cc2)(c2ccc(N(C)c3ccccc3)cc2)C=C1 (stereo not drawn) ; wanted: its Maximum absorption wavelength
530

Any idea what Maximum absorption wavelength was measured for CCC1(CC)CCC2(CC1)c1ccccc1-c1c2c2c(c3cc(OC)c(N(c4ccccc4)c4ccccc4)cc13)OC(c1ccc(C)cc1)(c1ccc(N(C)c3ccc(C)cc3)cc1)C=C2 (stereo not drawn) ?
522

----------
- protocol-description: Accelerated deterioration (xenon weather meter X25, 120 hours) of binder sheet prepared by binder method
- Format: physicochemical
- condition-label: 0.25 mmol per 100 parts by mass resin, A120/A0×100 after 120 hours xenon weather meter
In this section we review reported Residual rate values for a set of compounds.
Give just the numeric value; % need not be written.

>  <compound>
COc1ccc(C2(c3ccc(N(C)c4ccccc4)cc3)C=Cc3c4c(c5cc(-c6ccc(N7CCOCC7)cc6)c(OC)cc5c3O2)-c2ccccc2C4(C)C)cc1 (stereo not drawn) [Example 1]

>  <Residual rate (%)>
89

$$$$
>  <compound>
COc1ccc(N(C)c2ccc(C3(c4ccc(CCO[Si](C)(C)CC[Si](O[Si](C)(C)C)(O[Si](C)(C)C)O[Si](C)(C)C)cc4)C=Cc4c5c(c6cc(N(C)c7ccccc7)c(OC)cc6c4O3)-c3ccc(C(F)(F)F)cc3C53CCC(C)(C)CC3)cc2)cc1 (stereo not drawn) [Example 60]

>  <Residual rate (%)>
88

$$$$

Let us move to another entry and its Residual rate.
State the recorded Residual rate for this entry: CCCC1(CCC)c2ccccc2-c2c1c1c(c3cc(OC)c(-c4ccc(OC)cc4OC)cc23)OC(c2ccc(C)cc2)(c2ccc(N(C)c3ccccc3)cc2)C=C1 (stereo not drawn) [Example 19]
91

----------
- protocol-description: Photochromic properties of photochromic cured product prepared by kneading method
- Assay type: physicochemical
- condition-label: 1 mm thiourethane cured product, 0.106 mmol per 100 g monomer, after color development
A collection of molecules and their measured Maximum absorption wavelength

>  <molecule>
COCCOCCC1(CCOCCOC)c2cc(C)ccc2-c2c1c1c(c3cc(C)ccc23)OC(c2ccc(N(C)c3ccc(F)cc3)cc2)(c2ccc(OC)c(OC)c2)C=C1 (centres unmarked) [Example 8]

>  <reported-metric>
Maximum absorption wavelength

>  <result>
476 nm

$$$$
>  <molecule>
CCCC1(CCC)c2ccccc2-c2c1c1c(c3cc(OC)c(-c4ccc(OC)cc4OC)cc23)OC(c2ccc(N(C)c3ccccc3)cc2)(c2ccc(OC)c(F)c2)C=C1 (centres unmarked) [Example 7]

>  <reported-metric>
Maximum absorption wavelength

>  <result>
499 nm

$$$$
>  <molecule>
CCCC1(CCC)c2cc(OC(F)(F)F)ccc2-c2c1c1c(c3cc(OC)c(Sc4c(C)cccc4C)cc23)OC(c2ccc(N(C)c3ccccc3)cc2)(c2ccc(OC)c(OC)c2)C=C1 (centres unmarked) [Example 57]

>  <reported-metric>
Maximum absorption wavelength

>  <result>
496 nm

$$$$
>  <molecule>
COCCN(c1ccccc1)c1ccc(C2(c3ccc4c(c3)OCCO4)C=Cc3c4c(c5cc6c(cc5c3O2)SC(C)(C)O6)-c2ccccc2C42CCC3(CCCCC3)CC2)cc1 (centres unmarked) [Example 14]

>  <reported-metric>
Maximum absorption wavelength

>  <result>
496 nm

$$$$

Query molecule follows.
GET /values?readout=Maximum absorption wavelength&item= CCCC1(CCC)c2cc(OC)ccc2-c2c1c1c(c3cc(OC)ccc23)OC(c2ccc(OC)cc2)(c2ccc(N(C)c3ccccc3)cc2)C=C1 (centres unmarked) [Example 3]
472 nm

----------
Measured Maximum absorption wavelength by item
- protocol-description: Photochromic properties of photochromic laminate (plastic lens) prepared by coating method
- Format: physicochemical
- condition-label: 40 µm photochromic layer on thiourethane lens, 0.25 mmol compound per 100 g monomers, after color development
The reply must contain the numeric value and, after it, the unit.

>  <compound>
CCC1(CC)CCC2(CC1)c1cc(OC(F)(F)F)ccc1-c1c2c2c(c3cc(OC)ccc13)OC(c1ccc(N(C)c3ccccc3)cc1)(c1ccc(OC)c(C)c1)C=C2 (centres unmarked) [Example 16]

>  <Maximum absorption wavelength>
472 nm

$$$$
>  <compound>
CCCCCCC1(CCCCCC)c2ccccc2-c2c1c1c(c3cc(OC)ccc23)OC(c2ccc(F)cc2)(c2ccc(N(CC)c3ccccc3)cc2)C=C1 (centres unmarked) [Example 4]

>  <Maximum absorption wavelength>
489 nm

$$$$
>  <compound>
COc1ccc(N(C)c2ccc(C3(c4ccc(CCO[Si](C)(C)CC[Si](O[Si](C)(C)C)(O[Si](C)(C)C)O[Si](C)(C)C)cc4)C=Cc4c5c(c6cc(N(C)c7ccccc7)c(OC)cc6c4O3)-c3ccc(C(F)(F)F)cc3C53CCC(C)(C)CC3)cc2)cc1 (centres unmarked) [Example 60]

>  <Maximum absorption wavelength>
523 nm

$$$$
>  <compound>
CCCc1ccc(C2(c3ccc(N(C)c4ccccc4)cc3)C=Cc3c4c(c5cc(Sc6c(C)cccc6C)c(OC)cc5c3O2)-c2ccccc2C42CC(C)(C)CC(C)(C)C2)cc1 (centres unmarked) [Example 5]

>  <Maximum absorption wavelength>
509 nm

$$$$

// next item, Maximum absorption wavelength requested
# lookup: Maximum absorption wavelength of CCCC1(CCC)c2cc(OC(F)(F)F)ccc2-c2c1c1c(c3cc(OC)c(Sc4c(C)cccc4C)cc23)OC(c2ccc(N(C)c3ccccc3)cc2)(c2ccc(OC)c(OC)c2)C=C1 (centres unmarked) [Example 57]
493 nm

----------
- protocol-description: Photochromic properties of photochromic cured product prepared by kneading method
- Format: physicochemical
- condition-label: 1 mm thiourethane cured product, 0.106 mmol per 100 g monomer, after color development
reported-metric: Maximum absorption wavelength (nm)
The reply should be a number in nm, with the unit left off.

Use these answered entries as a reference point.
>  <compound>
CCCCN(c1ccccc1)c1ccc(C2(c3ccc(C)cc3)C=Cc3c4c(c5cc(N6CCOCC6)c(OC)cc5c3O2)-c2ccccc2C4(CC)CC)cc1 (stereo not drawn) [Example 10]

>  <numeric-result>
519

$$$$
>  <compound>
CCCc1ccc(C2(c3ccc(N(C)c4ccccc4)cc3)C=Cc3c4c(c5cc(Sc6c(C)cccc6C)c(OC)cc5c3O2)-c2ccccc2C42CC(C)(C)CC(C)(C)C2)cc1 (stereo not drawn) [Example 5]

>  <numeric-result>
511

$$$$
>  <compound>
CCCCC1(CCCC)c2cc(-c3ccc(OC(C)C)cc3)ccc2-c2c1c1c(c3cc(OC)ccc23)OC(c2ccc(N(C)c3ccccc3)cc2)(c2ccc(OC)c(F)c2)C=C1 (stereo not drawn) [Example 21]

>  <numeric-result>
490

$$$$
>  <compound>
CCC1(CC)CCC2(CC1)c1cc(OC(F)(F)F)ccc1-c1c2c2c(c3cc(OC)ccc13)OC(c1ccc(N(C)c3ccccc3)cc1)(c1ccc(OC)c(C)c1)C=C2 (stereo not drawn) [Example 16]

>  <numeric-result>
475

$$$$
>  <compound>
CCC1(CC)CCC2(CC1)c1ccccc1-c1c2c2c(c3cc(OC)c(N(c4ccccc4)c4ccccc4)cc13)OC(c1ccc(C)cc1)(c1ccc(N(C)c3ccc(C)cc3)cc1)C=C2 (stereo not drawn) [Example 2]

>  <numeric-result>
526

$$$$

What does the data say about its Maximum absorption wavelength? Entry: CCCC1(CCC)c2ccccc2-c2c1c1c(c3cc(OC)c(-c4ccc(N(C)c5ccccc5)cc4)cc23)OC(c2ccc(C)cc2)(c2ccc(N(C)c3ccccc3)cc2)C=C1 (stereo not drawn) [Example 24]
505
